protocol details: Chemical stability assessment of peptides (relative purity loss)
Type: physicochemical
assay context: 50 mM HCl pH 1.2 + acetonitrile (1:1); 24 hours at 37° C.
Starred links: 1 amine or outer side, 2 acyl side, 3 side chain; linkers in the order of their positions; H or OH if unused. Positions of bridges follow the written chain, without caps; N, C: chain ends. Non-standard residues stand in square brackets, D forms with d. Residues, ends and D or L forms follow the SMILES beside them. *: point of attachment. X3 = CN(CCCCC(=O)N[C@@H](CS[*:2])C(=O)[*:1])[*:3]; X1 = O=C(CCCCN[*:3])N[C@@H](CS[*:2])C(=O)[*:1]; 2Nal = N[C@@H](Cc1ccc2ccccc2c1)C(=O)O; AEF = NCCOc1ccc(C[C@H](N)C(=O)O)cc1; Thp = NC1(C(=O)O)CCOCC1; Me2NCH2CH2 = CN(C)CC*; Aib = CC(C)(N)C(=O)O
measured quantity: Chemical stability (relative purity loss) Buffer pH 1.2 (%)
Give the number; % is assumed, so skip it.

>>> numeric_result("CC(=O)N[C@H]1CCCCNC(=O)[C@@H]2CSSC[C@H](NC(=O)[C@H](CCC(N)=O)NC(=O)[C@H](Cc3c[nH]c4ccccc34)NC1=O)C(=O)N[C@@H](Cc1ccc(OCCN(C)C)cc1)C(=O)N[C@@H](Cc1ccc3ccccc3c1)C(=O)NC(C)(C)C(=O)N[C@H](C(=O)N[C@@H](C)C(=O)NCC(N)=O)CCC(=O)NCCCCC(=O)N2 [compound 32] (Ac-KWQCY(Me2NCH2CH2)[2Nal][Aib]EAG-NH2; linker 1-4-8 via X1)")
10.5

Value of Chemical stability (relative purity loss) Buffer pH 1.2 reported for the compound CC(=O)N[C@H]1CCCCNC(=O)[C@@H]2CSSC[C@H](NC(=O)[C@H](CCC(N)=O)NC(=O)[C@H](Cc3c[nH]c4ccccc34)NC1=O)C(=O)N[C@@H](Cc1ccc(OCCN)cc1)C(=O)N[C@@H](Cc1ccc3ccccc3c1)C(=O)NC1(CCOCC1)C(=O)N[C@H](C(=O)N[C@@H](C)C(=O)NCC(N)=O)CCC(=O)N(C)CCCCC(=O)N2 [compound 17] (Ac-KWQC[AEF][2Nal][Thp]EAG-NH2; linker 1-4-8 via X3) is 5.6

Per the records, this compound ( CC(=O)N[C@H]1CCCCNC(=O)[C@@H]2CSSC[C@H](NC(=O)[C@H](CCC(N)=O)NC(=O)[C@H](Cc3c[nH]c4ccccc34)NC1=O)C(=O)N[C@@H](Cc1ccc(OCCN)cc1)C(=O)N[C@@H](Cc1ccc3ccccc3c1)C(=O)NC1(CCOCC1)C(=O)N[C@H](C(=O)N[C@@H](CC(N)=O)C(=O)NCC(N)=O)CCC(=O)N(C)CCCCC(=O)N2 [compound 16] (Ac-KWQC[AEF][2Nal][Thp]ENG-NH2; linker 1-4-8 via X3) ) has Chemical stability (relative purity loss) Buffer pH 1.2 equal to 13.2
